Some compounds, each annotated with its measured solubility.
# assay.protocol: Insolubility limit in growth assay medium
# study.conditions: 30 °C, aqueous buffer, kinetic from dmso stock
recorded.endpoint: solubility

{"input.smiles": "Oc1ccc(/C=C/c2cc(O)cc(O)c2)cc1", "recorded.endpoint": "solubility", "result": "≤ 250 µM"}
{"input.smiles": "Oc1cc(O)cc(/C=C/c2ccc(O)cc2O)c1", "recorded.endpoint": "solubility", "result": "≤ 250 µM"}

====

IC50 values, listed per item
# tested.on: EcDHFR (Escherichia coli, UniProt P0ABQ4)
# Sequence (P0ABQ4 whole entry): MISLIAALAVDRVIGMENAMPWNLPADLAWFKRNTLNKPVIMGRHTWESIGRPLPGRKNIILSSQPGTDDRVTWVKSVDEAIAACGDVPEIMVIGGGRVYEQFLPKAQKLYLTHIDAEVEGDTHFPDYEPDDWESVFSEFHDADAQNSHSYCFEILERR
# assay.protocol: biochemical
# Type: biochemical
# study.conditions: 60μM NADPH, 50μM H2F, 100mM HEPES pH 7.3, 16.7nM EcDHFR; ± S.E.

{"input.smiles": "O=S(=O)(O)c1cc(N=C=S)ccc1C=Cc1ccc(N=C=S)cc1S(=O)(=O)O", "result.units": "µM", "IC50": 51}
{"input.smiles": "Nc1ccc(C=Cc2ccc(N)cc2S(=O)(=O)O)c(S(=O)(=O)O)c1", "result.units": "µM", "IC50": 36.7}
{"input.smiles": "O=[N+]([O-])c1ccc(/C=C/c2ccc([N+](=O)[O-])cc2S(=O)(=O)O)c(S(=O)(=O)O)c1", "result.units": "µM", "IC50": 45.3}
